- measured target: T1, human amylin receptor 1 (hAMY1R): human calcitonin receptor co-expressed with human RAMP1 in UMUC3 cells (human, UniProt P30988 25-474; O60894 27-148)
- T1 construct: whole, on cells; also called AMY1 receptor; hAMYIR
- T1 sequence (P30988 25-474, chain 1 of 2): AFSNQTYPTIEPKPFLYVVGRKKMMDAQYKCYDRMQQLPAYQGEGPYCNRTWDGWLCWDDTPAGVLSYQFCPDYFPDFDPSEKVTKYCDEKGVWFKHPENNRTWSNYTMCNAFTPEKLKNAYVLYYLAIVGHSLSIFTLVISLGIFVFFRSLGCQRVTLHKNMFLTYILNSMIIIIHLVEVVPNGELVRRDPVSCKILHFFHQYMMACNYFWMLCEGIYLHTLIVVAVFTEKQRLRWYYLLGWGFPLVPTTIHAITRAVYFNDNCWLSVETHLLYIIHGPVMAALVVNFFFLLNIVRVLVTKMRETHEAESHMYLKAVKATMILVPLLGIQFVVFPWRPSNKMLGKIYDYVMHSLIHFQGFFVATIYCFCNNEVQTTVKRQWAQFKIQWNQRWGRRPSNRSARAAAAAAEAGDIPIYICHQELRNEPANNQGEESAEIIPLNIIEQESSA
- T1 sequence (O60894 27-148, chain 2 of 2): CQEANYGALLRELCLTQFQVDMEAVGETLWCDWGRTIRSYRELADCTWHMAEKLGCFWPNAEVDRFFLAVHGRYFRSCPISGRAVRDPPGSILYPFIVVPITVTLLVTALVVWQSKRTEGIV
- test protocol: competitive radioligand binding filter assay, hAMY1R membranes, displacement of 125I-rAMY
- Method: The equilibrium dissociation constants (Kd) for the various receptor/radioligand interactions are determined from saturation binding analysis using the same reagents and buffers as described below for compound testing. Binding reactions are carried out in 0.1 mL total reaction volume in a polystyrene 96 deep-well assay block. […] The binding reaction is initiated by the addition of 0.05 mL of 200 μg/mL hAMY1R diluted in assay buffer to the radioactivity. […]
Numbered stars: 1 amine (or outer) side, 2 acyl side, 3 side chain; on linkers, the order of the positions; unused ones are H or OH. Bridge positions count the residues as written; N and C are the ends. Square brackets hold non-standard residues; d marks the D form. Side chains are listed from the residue outwards. Ends that are not written are not given here. * marks the point of attachment. C20 diacid = O=C(O)CCCCCCCCCCCCCCCCCCC(=O)*; γGlu = O=C(O)[C@H](CCC(=O)[*:2])N[*:1]; αMeF = C[C@](N)(Cc1ccccc1)C(=O)O; NMeD = CN[C@@H](CC(=O)O)C(=O)O; NMeN = CN[C@@H](CC(N)=O)C(=O)O; αMeL = CC(C)C[C@](C)(N)C(=O)O; Orn = NCCC[C@H](N)C(=O)O; CH2 = C([*:1])[*:2]
experimental endpoint: Ki (nM)

Example binders with recorded Ki:
Query block: Suppose we examine the binder [γGlu]CNTATCATG[Orn]LAE[αMeF]LVRSSN[NMeN]FGPK([γGlu-γGlu-C20 diacid])LPPTEVGSNTY-NH2 (bridge 2-7 via CH2, Acylated form of Compound I) [Compound II] ; what Ki value has been reported?
Result block: 0.017

Query block: Also check K([γGlu-γGlu-C20 diacid])CETATCATG[Orn]LAE[αMeF]LVRSSN[NMeD]FGPILPPTEVGSNTY-NH2 (bridge 2-7 via CH2, Acylated form of Compound V) [Compound VI]
Result block: 0.0445

1 = K([γGlu-γGlu-C20 diacid])CETATCATG[Orn][αMeL]AEFLVRSSHNFGPILPPTEVGSNTY-NH2 (bridge 2-7 via CH2, Acylated form of Compound VII) [Compound VIII]
2 = [γGlu]CNTATCATG[Orn]LAE[αMeF]LVRSSN[NMeD]FGPK([γGlu-γGlu-C20 diacid])LPPTEVGSNTY-NH2 (bridge 2-7 via CH2, Acylated form of Compound III) [Compound IV]
Query block: From the items above, decide which of 1 and 2 has the lower Ki reading. // output: label of the selected item
Result block: 2
(2: 0.0296 nM, 1: 0.0435 nM)
